Target desc: Neu5Ac(a2-6)Gal(b1-4)GlcNAc(b1-3)[Neu5Ac(a2-6)Gal(b1-4)GlcNAc(b1-6)]GalNAc
Assay procedure: glycan array binding signal (z-score within array); higher = stronger binding
Applied conditions: glycan notation: IUPAC condensed, linker removed
About 410 targets per protein were measured; listed, in parts, are those with the strongest signals and a random draw of the rest.
We begin with a simple list: items and their reported glycan array binding signal (z-score).

These solved cases illustrate the format of a correct answer.
Binder: ERGIC1-EDTA (Homo sapiens), Q969X5 (protein) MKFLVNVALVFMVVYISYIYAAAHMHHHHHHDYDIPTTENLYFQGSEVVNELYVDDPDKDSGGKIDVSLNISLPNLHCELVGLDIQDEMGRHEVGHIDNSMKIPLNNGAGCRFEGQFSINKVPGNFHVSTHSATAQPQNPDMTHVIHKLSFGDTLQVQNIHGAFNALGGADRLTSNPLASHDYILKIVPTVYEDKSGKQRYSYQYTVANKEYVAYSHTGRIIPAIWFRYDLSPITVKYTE
Test value: -1.06

Binder: CSA (Cytisus scoparius), P29257 (protein) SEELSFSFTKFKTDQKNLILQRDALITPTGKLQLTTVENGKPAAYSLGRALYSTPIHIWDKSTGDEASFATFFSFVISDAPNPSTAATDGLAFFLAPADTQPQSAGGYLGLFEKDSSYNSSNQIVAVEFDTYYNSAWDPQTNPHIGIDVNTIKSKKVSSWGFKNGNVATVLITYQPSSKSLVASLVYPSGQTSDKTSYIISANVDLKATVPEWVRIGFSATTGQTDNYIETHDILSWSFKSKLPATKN
Test value: -0.172

Request: Look up glycan array binding signal (z-score): rCNL (Clitocybe nebularis), B2ZRS9 (protein) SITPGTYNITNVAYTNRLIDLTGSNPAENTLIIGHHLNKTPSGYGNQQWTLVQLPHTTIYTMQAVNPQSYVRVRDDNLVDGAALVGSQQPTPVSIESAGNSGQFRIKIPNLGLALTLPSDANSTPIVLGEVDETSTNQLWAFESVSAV
Response: -0.221

Request: Also, Agalectin (Anopheles gambiae) (protein) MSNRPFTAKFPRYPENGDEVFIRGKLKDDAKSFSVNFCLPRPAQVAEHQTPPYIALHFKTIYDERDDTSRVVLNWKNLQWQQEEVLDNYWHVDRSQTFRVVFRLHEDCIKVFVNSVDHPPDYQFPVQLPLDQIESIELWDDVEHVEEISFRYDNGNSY please.
Response: -0.501

Request: Also, AT1G15820(NC) (Arabidopsis thaliana) (protein) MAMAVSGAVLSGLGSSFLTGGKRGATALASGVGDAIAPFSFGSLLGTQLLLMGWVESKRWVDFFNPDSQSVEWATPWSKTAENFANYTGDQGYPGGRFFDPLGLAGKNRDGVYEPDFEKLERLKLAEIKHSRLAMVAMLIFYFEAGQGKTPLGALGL please.
Response: -0.424

Request: Also, EULS2 M4 (Oryza sativa) (protein) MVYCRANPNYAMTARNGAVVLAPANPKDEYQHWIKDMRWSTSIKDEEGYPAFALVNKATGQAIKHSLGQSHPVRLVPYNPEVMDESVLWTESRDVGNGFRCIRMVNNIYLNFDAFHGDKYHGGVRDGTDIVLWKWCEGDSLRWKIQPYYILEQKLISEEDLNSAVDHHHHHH please.
Response: 7.46

meta.source: the supplement of paper PMC8728848
